PARAMETER MEASURED: melting point

compound="NC(=O)c1cc(/C=C/c2ccc(O)cc2)ccc1O [Example 8]" result="272 to 274 °C"
compound="CC(=O)Nc1cc(O)ccc1/C=C/c1ccc(O)cc1 [Example 11]" result="227 to 229 °C"
compound="CN(C)C(=O)c1cc(O)ccc1/C=C/c1ccc(O)cc1 [Example 12]" result="183.5 to 187.7 °C"
compound="CCOC(=O)c1cc(/C=C/c2ccc(O)cc2)ccc1O [Example 7]" result="269 to 271 °C"
compound="COc1cc(O)ccc1/C=C/c1ccc(O)cc1 [Example 3]" result="192 to 194 °C"
compound="OCc1cc(O)ccc1/C=C/c1ccc(O)cc1 [Example 4]" result="223 to 225 °C"
compound="CS(=O)(=O)c1cc(O)ccc1/C=C/c1ccc(O)cc1 [Example 9]" result="244 to 245 °C"
compound="O=[N+]([O-])c1cc(O)ccc1/C=C/c1ccc(O)cc1 [Example 6]" result="237 to 240 °C"
compound="Nc1cc(O)ccc1/C=C/c1ccc(O)cc1 [Example 10]" result="229 to 232 °C"
compound="O=C(O)c1cc(/C=C/c2ccc(O)cc2)ccc1O [Example 5]" result="241 to 243 °C"

Every entry's value here was drawn from patent US8242144B2.
